- experimental_details: NCI Yeast Anticancer Drug Screen. Data for the rad50 strain (AID 155);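 also: 0% = growth of vehicle-only cultures of the same strain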
- experimental_setup: S. cerevisiae rad50 strain growth inhibition; at 5.0 µM (retest, dose inferred, filed as 0.5)
The panel holds about 79,000 compounds, 15% with a hit somewhere; the sample as a whole holds those more often. Calls of active or inactive are those of the source. Rule as the data show it: active = growth inhibition above about 70%; inactive = the rest.
Labels: active, inactive

compound=Cn1cnc([N+](=O)[O-])c1Sc1nc2cccnc2s1 label_class=inactive
compound=CCCCSc1n[nH]c(=O)nc1SC label_class=inactive
compound=Cc1cccc(/C=N/Nc2cc(C)c3ccccc3n2)n1 label_class=inactive
compound=CC(C)CC(CC(C)C)OP(=O)(O)OC(CC(C)C)CC(C)C label_class=inactive
compound=CN(C)COC(=S)SCN(C)C label_class=active
compound=Oc1ccccc1C(c1ccccc1O)C(Cl)(Cl)Cl label_class=active
compound=O=C1/C(=C/c2ccccc2)CCCc2ccccc21 label_class=inactive
compound=Cc1c(NC(=O)C(=O)N=NC(=O)c2ccncc2)c(O)c2ccccc2c1O label_class=inactive
compound="CC(NNC(=S)N1CC2CCC(CC2)C1)c1cc2ccccc2cn1 (configuration not stated)" label_class=active
compound=O=C(O)CSc1nc(-c2ccccc2)c(-c2ccccc2)n1-c1ccccn1 label_class=inactive
compound=CCCCCCCCCCCCCCCCOP(=O)([O-])OCC[N+](C)(C)C label_class=active
compound=CCOc1ncc(Cl)c(OCC)n1 label_class=inactive

* * *

- experimental_details: NCI Yeast Anticancer Drug Screen. Data for the bub3 strain (AID 167)
- experimental_setup: S. cerevisiae bub3 mutant strain, at 50.0 µM (retest, dose inferred, filed as 5.0), hits give high values
This is part of a sample that, as a whole, favours compounds with a hit. Of some 79,000 tested, about 15% had one in any assay. Activity calls are given as the source filed them. Rule as the data show it: active = growth inhibition above about 70%; inactive = the rest.
readout_name: growth inhibition

compound=O=C(O)CCSCc1cc(C(=O)Nc2ccc(/C=C/c3ccc(NC(=O)c4cc(CSCCC(=O)O)c5cccnc5c4O)cc3S(=O)(=O)O)c(S(=O)(=O)O)c2)c(O)c2ncccc12 result="96% (active)"
compound=Cc1nc(N2N=C(c3ccc(Cl)cc3)CCC2=O)sc1[N+](=O)[O-] result="88% (active)"
compound=O=C1Nc2ccccc2/C1=N\N=c1/scc(-c2ccccc2)n1-c1ccccc1 result="87% (active)"
compound=COc1ccccc1/C=C1\S/C(=N/Nc2nc(C)c(C(C)=O)s2)NC1=O result="43% (inactive)"
compound=FC(F)(F)C(C1=NC(C(F)(F)F)(C(F)(F)F)N=C(N2CCOCC2)O1)C(F)(F)F result="80% (active)"
compound=Oc1ccc(CNCc2ccccc2)c2cccnc12 result="99% (active)"
compound=O=[N+]([O-])c1cc(I)c(O)c(/C=N/NS(=O)(=O)c2ccc(Cl)cc2)c1 result="-1% (inactive)"
compound="O=C1OC(c2ccccc2)CC1Cc1ccccc1 (stereo not given)" result="6% (inactive)"
compound=COC1=CC(=O)c2c(O)c3c(c(O)c2C1=O)C[C@](C)(O)C[C@@H]3O result="93% (active)"
compound=CC(=O)c1cc(-c2ccccc2)nc2ccccc12 result="87% (active)"

* * *

- experimental_details: NCI Yeast Anticancer Drug Screen. Data for the bub3 strain (AID 167)
- experimental_setup: S. cerevisiae bub3 mutant strain, at 5.0 µM (retest, dose inferred, filed as 0.5), hits give high values
This is part of a sample that, as a whole, favours compounds with a hit. Of some 79,000 tested, about 15% had one in any assay.
readout_name: growth inhibition (%)

compound=Cn1c2c(c3ccccc31)CCN1C[C@@H]3CCCC[C@H]3C[C@@H]21 readout_name="growth inhibition" recorded_number=2
compound=O=c1cccccc1O readout_name="growth inhibition" recorded_number=26
compound=COC(=O)c1c(C)cccc1C(=O)c1ccc(C)cc1C readout_name="growth inhibition" recorded_number=-2
compound=COc1cc(N=Nc2cccc(S(N)(=O)=O)c2)c2ccccc2c1N readout_name="growth inhibition" recorded_number=-5
compound=CC(=O)Nc1ccc2c(c1)[nH]c(=O)c1cc(Cl)ccc12 readout_name="growth inhibition" recorded_number=4
compound=C/C(=N\NC(=S)N1CCN(c2ccccn2)CC1)c1ccccn1 readout_name="growth inhibition" recorded_number=63
compound=O=C1Nc2ccccc2/C1=C\c1ccccn1 readout_name="growth inhibition" recorded_number=26
compound="CC(N)C(O)c1ccc2ccc3ccccc3c2c1 (stereo not given)" readout_name="growth inhibition" recorded_number=6
compound=O=C(O)CSc1nc(-c2ccccc2)c(-c2ccccc2)n1-c1ccccn1 readout_name="growth inhibition" recorded_number=-13
compound=CCCCCCCCSCc1ccc(N)cc1 readout_name="growth inhibition" recorded_number=51
compound=O=C1c2ccccc2C(=O)N1c1ccccc1 readout_name="growth inhibition" recorded_number=36
compound="CC(CCNCCC#N)CC(C)(C)C (stereo not given)" readout_name="growth inhibition" recorded_number=7
compound=COc1cc(OC)c(SSCCCCS(=O)O)c(OC)c1 readout_name="growth inhibition" recorded_number=7
compound=CSc1ccc(/C=N/NC(N)=S)cc1 readout_name="growth inhibition" recorded_number=-63
compound=Cc1cc(I)cc(I)c1O readout_name="growth inhibition" recorded_number=1
compound="Cc1cccc(C)c1N1C(=O)C(=O)C(c2nc3ccccc3s2)/C(=N/NC(=O)c2ccccc2O)C1=O (stereo not given)" readout_name="growth inhibition" recorded_number=19
compound="COc1cccc(C2c3cc4c(cc3OC(NNS(=O)(=O)c3ccc(C)cc3)C2C)OCO4)c1O (stereo not given)" readout_name="growth inhibition" recorded_number=-20
compound="C/C(=N/Nc1ccc([N+](=O)[O-])cc1[N+](=O)[O-])C1=CCC(C(C)(C)C)CC1 (stereo not given)" readout_name="growth inhibition" recorded_number=-3
compound=CCCc1cc(=O)oc2c3c(c4c(c12)OC(C)(C)C=C4)O[C@@H](C)[C@H](C)[C@H]3O readout_name="growth inhibition" recorded_number=-2
compound="CCC(CCCN(CC)CCc1ccccc1)OC(=O)c1cc(OC)c(OC)c(OC)c1 (stereo not given)" readout_name="growth inhibition" recorded_number=4
compound=O=c1[nH]c2ccccc2nc1CBr readout_name="growth inhibition" recorded_number=14
compound=CCN(CC)CCNCc1ccccc1 readout_name="growth inhibition" recorded_number=-70
compound=O=S(=O)(O)c1cc2ccccc2c(O)c1N=Nc1ccccc1 readout_name="growth inhibition" recorded_number=-1
compound=CCCCCCCC/C=C\CCCCCCCCN1CCOCC1 readout_name="growth inhibition" recorded_number=15
compound="CC1OC2CC(=O)OC2C2=C1C(=O)c1c(O)cccc1C2=O (stereo not given)" readout_name="growth inhibition" recorded_number=99
